The measurements presented in this section are drawn from patent US20050037969A1.

Target: T1, GST-MPP1 PDZ domain fusion protein (Homo sapiens (Human), UniProt Q00013 67-152)
T1 construct: also called p55; 55 Kd erythrocyte membrane protein; not shown: glutathione S-transferase encoded by vector pGEX-3X (Pharmacia)
T1 sequence: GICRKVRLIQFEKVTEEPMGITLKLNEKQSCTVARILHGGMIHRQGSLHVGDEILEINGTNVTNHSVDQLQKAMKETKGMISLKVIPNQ
Assay: A/G assays
Ends that are not written are not given here. * marks the point of attachment. Biotin = O=C1N[C@H]2[C@H](CS[C@H]2CCCCC(=O)*)N1
quantityMeasured: binding result

# example entries with known answers
Biotin-VTSPNKHLGLVTPHKTELV [CD83 C-terminal peptide AA47L, biotinylated] ... no binding
Biotin-EVICYIEKPGVETLEDSVF [CDW125 (IL5R) C-terminal peptide AA28L, biotinylated] ... no binding
Biotin-SSSQSLESDGSYQKPSYIL (Only the last four residues are seen in the excerpts) [CD62E C-terminal peptide AA48L] ... no binding
Biotin-AWDDSARAAGGQGLHVTAL [LPAP C-terminal peptide AA30L, biotinylated] ... no binding
Biotin-LERTSSVSPSTAEPELSIVF (Only the last four residues are seen in the excerpts) [CC CKR-3 C-terminal peptide AA43L] ... no binding
Biotin-SSGGRARHSYHHPDQDHWC (Marked (S), sticky peptide with high background; also called V-gated Ca2+ channel (S)) [V-gated Ca2+ channel C-terminal peptide AA46L] ... no binding

Field: binding result. Fill in for each record below.
1. Biotin-ARHRVTSYTSSSVNVSSNL [CDW128A (IL8RA) C-terminal peptide AA29.1L, biotinylated]
2. Biotin-GTSDMKDLVGNIEQNEHSVI (Only the last four residues are seen in the excerpts) [Mannose receptor C-terminal peptide AA31L]
3. Biotin-QATSENGHSARQHVVADTEL [CD34 C-terminal peptide AA7L, biotinylated]
4. Biotin-PSWRRSSLSESENATSLTTF (also called CXCR5) [BLR-1 C-terminal peptide AA45L, biotinylated]
5. Biotin-SPQPDSTDNDDYDDISAA [CD6 C-terminal peptide AA6L, biotinylated]
6. Biotin-SMQPDNSSDSDYDLHGAQRL (Only the last four residues are seen in the excerpts) [CD5 C-terminal peptide AA49L]

Marked response:
no binding
no binding
no binding
no binding
no binding
no binding

Field: binding result. Fill in for each record below.
1. Biotin-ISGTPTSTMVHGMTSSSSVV [Clasp-2 C-terminal peptide AA2L, biotinylated]
2. Biotin-SVFSIPTLWSPWPPSSSSQL (also called CD3η; CD3-eta) [CD3n C-terminal peptide AA4L, biotinylated]
3. Biotin-ENLAPVTTFGKTNGYIA (also called CD148 (DEP-1)) [CD148 C-terminal peptide AA19L, biotinylated]

Marked response:
1. no binding
2. no binding
3. no binding
